Target: FES (Homo sapiens, UniProt P07332)
Sequence (P07332 whole entry): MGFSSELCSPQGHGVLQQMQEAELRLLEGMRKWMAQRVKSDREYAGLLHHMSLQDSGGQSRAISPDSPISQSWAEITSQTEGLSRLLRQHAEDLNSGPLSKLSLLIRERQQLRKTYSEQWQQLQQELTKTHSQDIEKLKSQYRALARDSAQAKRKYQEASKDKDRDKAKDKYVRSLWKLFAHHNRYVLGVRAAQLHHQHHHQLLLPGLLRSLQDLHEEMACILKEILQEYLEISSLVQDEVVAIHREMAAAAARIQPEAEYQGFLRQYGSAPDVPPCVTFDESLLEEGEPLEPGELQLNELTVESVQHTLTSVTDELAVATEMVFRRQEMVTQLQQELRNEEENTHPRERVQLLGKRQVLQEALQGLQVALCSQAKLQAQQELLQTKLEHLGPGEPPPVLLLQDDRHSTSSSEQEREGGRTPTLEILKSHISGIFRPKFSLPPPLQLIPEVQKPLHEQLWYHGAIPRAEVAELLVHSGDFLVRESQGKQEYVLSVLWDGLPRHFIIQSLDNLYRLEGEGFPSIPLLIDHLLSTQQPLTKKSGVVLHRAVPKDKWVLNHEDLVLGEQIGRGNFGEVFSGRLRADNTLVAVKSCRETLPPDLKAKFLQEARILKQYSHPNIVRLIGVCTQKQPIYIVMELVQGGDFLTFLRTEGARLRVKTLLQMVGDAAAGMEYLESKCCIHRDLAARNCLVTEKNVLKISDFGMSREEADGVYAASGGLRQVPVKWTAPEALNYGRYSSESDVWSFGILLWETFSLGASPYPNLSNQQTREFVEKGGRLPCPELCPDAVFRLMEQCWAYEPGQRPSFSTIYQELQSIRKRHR
measure: pIC50
Just the number, please; pIC50 means minus log10 of the concentration in mol/L.

Observed pIC50 on FES (Homo sapiens, UniProt P07332) for COc1cc(C(=O)NC2CCN(C)CC2)c(F)cc1Nc1ncc(C(F)(F)F)c(Oc2cccc3c2C(=O)N(C)C3)n1 , please.
5.98

###

Target: PTK2B/PYK2 (Homo sapiens)
Construct: purchased Invitrogen/Life Technologies
Assay: PYK2 kinase assay, Z'-LYTE (FRET)
Format: biochemical
Protocol: IC50 values on FAK and PYK2 were determined using the DELFIA® format, using kinase proteins obtained from Invitrogen (#PV3832, #PV4567) and biotinylated poly(Glu,Tyr) as substrate. Incubation in the presence of test compound was followed by detection of phosphorylated substrate using streptavidin-coated plates and Eu-N1 anti-phospho-Tyr PT66 antibody (#AD0040, VICTOR™ reader, both Perkin Elmer). Data were analyzed using GraphPad Prism. […]
measure: IC50 (nM)
Quick note: give the figure in nM, leave out the unit.

Given the compound COc1cc(C(=O)NC2CCN(C)CC2)c(F)cc1Nc1ncc(C(F)(F)F)c(Oc2cccc3c2C(=O)N(C)C3)n1 , what is its reported IC50?
2000

###

Assay: Drug concentrations in plasma and tumor of PC-3 tumor-bearing mice
Assay type: in vivo
Conditions: BomTac:NMRI-Foxn1^nu, mouse, plasma, oral; 50 mg/kg p.o. qdx4, 24 h after dose on day 4; read-out: plasma level
measure: concentration at 24 h (nM)
# number only, unit nM dropped from output

Give the measured concentration at 24 h of COc1cc(C(=O)NC2CCN(C)CC2)c(F)cc1Nc1ncc(C(F)(F)F)c(Oc2cccc3c2C(=O)N(C)C3)n1 [BI 853520] .
1300

###

Molecular target: FER (Homo sapiens)
Sequence (P16591 whole entry): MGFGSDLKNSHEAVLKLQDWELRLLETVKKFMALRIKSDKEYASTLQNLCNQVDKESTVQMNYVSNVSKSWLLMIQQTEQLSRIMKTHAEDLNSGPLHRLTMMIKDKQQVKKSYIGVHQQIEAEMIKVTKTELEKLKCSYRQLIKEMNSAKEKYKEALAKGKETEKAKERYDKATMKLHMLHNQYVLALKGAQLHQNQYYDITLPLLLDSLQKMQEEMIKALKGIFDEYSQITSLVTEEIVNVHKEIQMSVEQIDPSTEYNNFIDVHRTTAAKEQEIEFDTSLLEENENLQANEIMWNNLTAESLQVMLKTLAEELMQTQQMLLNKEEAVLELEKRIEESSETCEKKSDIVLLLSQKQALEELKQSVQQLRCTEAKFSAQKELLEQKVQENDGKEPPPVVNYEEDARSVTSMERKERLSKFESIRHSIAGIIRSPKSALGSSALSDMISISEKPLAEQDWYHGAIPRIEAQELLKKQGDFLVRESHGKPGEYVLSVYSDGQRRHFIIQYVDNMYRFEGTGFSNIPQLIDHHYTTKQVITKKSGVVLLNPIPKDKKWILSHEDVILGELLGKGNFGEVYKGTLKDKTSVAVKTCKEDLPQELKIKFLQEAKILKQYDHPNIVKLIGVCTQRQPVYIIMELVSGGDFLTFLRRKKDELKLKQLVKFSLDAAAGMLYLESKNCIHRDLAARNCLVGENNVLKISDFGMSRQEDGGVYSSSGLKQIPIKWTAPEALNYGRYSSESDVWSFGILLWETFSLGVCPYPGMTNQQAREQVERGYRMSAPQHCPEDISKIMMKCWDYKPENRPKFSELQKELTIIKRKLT
measure: IC50 (nM)
# output: bare number, implied unit nM

IC50 for COc1cc(C(=O)NC2CCN(C)CC2)c(F)cc1Nc1ncc(C(F)(F)F)c(Oc2cccc3c2C(=O)N(C)C3)n1 [BI 853520] ?
903

###

Assay: Single-dose pharmacokinetics in nude mice
Type: in vivo
Settings: BomTac:NMRI-Foxn1^nu, mouse, plasma; single intravenous dose 5 mg/kg, female nude mice
measure: clearance (mL/min/kg)
Report the figure in mL/min/kg without appending any unit label.

Query (compound): COc1cc(C(=O)NC2CCN(C)CC2)c(F)cc1Nc1ncc(C(F)(F)F)c(Oc2cccc3c2C(=O)N(C)C3)n1 ; field requested: clearance
36

###

Test: Single-dose pharmacokinetics in nude mice
Type: in vivo
Details: single oral dose 50 mg/kg
measure: AUC (µM·h)
Answer in µM·h, number only, no unit symbol.

Form field: reported AUC of COc1cc(C(=O)NC2CCN(C)CC2)c(F)cc1Nc1ncc(C(F)(F)F)c(Oc2cccc3c2C(=O)N(C)C3)n1
46

###

Test system: PC-3 cells
Experiment: Proliferation assay, adherent monolayer, alamarBlue
Assay type: cell-based, human
Conditions: Homo sapiens, PC-3, adherent monolayers
pEC50: −log10 of the molar value.
measure: pEC50

What does the data say about its pEC50? Entry: COc1cc(C(=O)NC2CCN(C)CC2)c(F)cc1Nc1ncc(C(F)(F)F)c(Oc2cccc3c2C(=O)N(C)C3)n1 [BI 853520]
< 5.52

###

Biological target: PTK2B/PYK2 (Homo sapiens, UniProt Q14289)
Construct: purchased Invitrogen/Life Technologies
Sequence (Q14289 whole entry): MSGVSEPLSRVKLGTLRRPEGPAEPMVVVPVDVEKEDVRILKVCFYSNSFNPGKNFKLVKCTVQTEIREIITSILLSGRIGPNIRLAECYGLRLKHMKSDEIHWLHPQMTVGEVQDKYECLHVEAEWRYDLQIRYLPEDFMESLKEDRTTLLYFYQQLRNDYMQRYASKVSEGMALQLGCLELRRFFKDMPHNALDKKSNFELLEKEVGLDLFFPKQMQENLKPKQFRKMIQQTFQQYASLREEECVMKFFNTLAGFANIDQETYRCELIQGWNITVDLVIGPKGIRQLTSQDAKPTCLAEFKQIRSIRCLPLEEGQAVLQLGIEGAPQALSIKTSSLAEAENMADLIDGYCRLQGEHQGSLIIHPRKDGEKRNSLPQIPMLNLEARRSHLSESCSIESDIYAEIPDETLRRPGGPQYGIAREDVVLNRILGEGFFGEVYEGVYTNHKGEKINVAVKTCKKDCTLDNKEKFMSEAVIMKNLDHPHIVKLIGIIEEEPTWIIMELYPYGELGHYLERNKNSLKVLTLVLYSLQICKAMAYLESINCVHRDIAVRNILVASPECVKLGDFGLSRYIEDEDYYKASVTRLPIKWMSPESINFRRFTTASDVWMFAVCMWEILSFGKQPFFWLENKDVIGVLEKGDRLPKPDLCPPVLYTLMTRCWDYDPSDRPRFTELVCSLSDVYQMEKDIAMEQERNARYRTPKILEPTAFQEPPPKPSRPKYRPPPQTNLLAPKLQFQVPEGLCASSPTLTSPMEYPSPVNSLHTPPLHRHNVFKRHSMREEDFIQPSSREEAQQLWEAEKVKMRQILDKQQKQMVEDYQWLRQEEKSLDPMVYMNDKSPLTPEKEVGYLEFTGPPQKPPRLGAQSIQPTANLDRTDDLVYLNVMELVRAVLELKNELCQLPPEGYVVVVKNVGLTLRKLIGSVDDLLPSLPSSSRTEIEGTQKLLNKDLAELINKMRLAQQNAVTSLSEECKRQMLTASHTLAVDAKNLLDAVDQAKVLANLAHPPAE
Experiment: PYK2 kinase assay, DELFIA format
Assay type: biochemical
Description: IC50 values on FAK and PYK2 were determined using the DELFIA® format, using kinase proteins obtained from Invitrogen (#PV3832, #PV4567) and biotinylated poly(Glu,Tyr) as substrate. Incubation in the presence of test compound was followed by detection of phosphorylated substrate using streptavidin-coated plates and Eu-N1 anti-phospho-Tyr PT66 antibody (#AD0040, VICTOR™ reader, both Perkin Elmer). Data were analyzed using GraphPad Prism. […]
pIC50: −log10 of the molar value.
measure: pIC50

Consider the molecule shown here: COc1cc(C(=O)NC2CCN(C)CC2)c(F)cc1Nc1ncc(C(F)(F)F)c(Oc2cccc3c2C(=O)N(C)C3)n1 What is its recorded pIC50?
< 4.30
